# experiment-notes: chemical genetic growth profiling, strain panel (AID 1159580);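 also: tested at 20 µM; growth read once vehicle control cultures reached saturation at 30 °C; 1 = growth at the plate median or of vehicle wells; lower values mean less growth of the strain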
# condition-label: S. cerevisiae deletion strains, growth OD, locus YIL066C, strain RNR3, stronger effect = lower value
The whole screen tested about 5,500 compounds, of which about 2,000 (36%) were called active. About 18% were inconclusive and are not listed. The list shows a part of the results.
The entries below are paired with their reported normalized growth.

compound: CC(=O)Oc1cc(OC(C)=O)c2c(c1)O[C@H](c1ccc(OC(C)=O)c(OC(C)=O)c1)[C@@H](OC(C)=O)C2
normalized growth: 0.978
--
compound: CCC1(O)CC(OC2CC(N(C)C)C(OC3CC(O)C(OC4CCC(=O)C(C)O4)C(C)O3)C(C)O2)c2c(cc3c(c2O)C(=O)c2c(O)cccc2C3=O)C1C(=O)OC (stereo not drawn)
normalized growth: 1
--
compound: COc1ccc([C@H]2Oc3c(I)c(OC)cc(OC)c3C[C@@H]2O)cc1OC
normalized growth: 1.02
--
compound: O=C(OCC(O)CO)c1ccccc1Nc1ccnc2cc(Cl)ccc12 (stereo not drawn)
normalized growth: 0.98
--
compound: CCCCC[C@H]1C(=O)O[C@H](C)[C@H](NC(=O)c2cccc(NC=O)c2O)C(=O)O[C@@H](C)[C@@H]1OC(=O)CC(C)C
normalized growth: 0.88
--
compound: CCN1CCCC(OC(=O)C(c2ccccc2)c2ccccc2)C1 (stereo not drawn)
normalized growth: 1.01
--
compound: Oc1cc(O)c2c(c1)O[C@H](c1cc(O)c(O)c(O)c1)[C@H](O)C2
normalized growth: 1.01
--
compound: c1ccc2c(c1)sc1ccccc12
normalized growth: 0.994
--
compound: CNCCC(Oc1ccc(C(F)(F)F)cc1)c1ccccc1 (stereo not drawn)
normalized growth: 1.01
--
compound: C/C=C(\C)C(=O)O[C@H]1C[C@@H](OC(C)=O)[C@@]2(C(=O)OC)CO[C@@H]3C2[C@]12CO[C@](O)(C(=O)OC)[C@H]2[C@](C)(C12O[C@@]1(C)[C@H]1C[C@@H]2OC2OC=C[C@@]21O)[C@@H]3O (stereo partly drawn)
normalized growth: 0.99
--
compound: CCC(C)C(=O)O[C@@H]1C[C@@]2(C)[C@H](c3ccoc3)OC(=O)CC23OC2(C)O[C@]14[C@]1(C)[C@@H](CC(=O)OC)C5(C)CC1(O)[C@](O)(C5OC(=O)C1(C)OC1C)[C@@H](OC(C)=O)[C@]34O2 (stereo partly drawn)
normalized growth: 0.999
--
compound: O=C(O)CCCc1ccc(N(CCCl)CCCl)cc1
normalized growth: 0.967
--
compound: CC1CCc2cc(F)cc3c(=O)c(C(=O)O)cn1c23 (stereo not drawn)
normalized growth: 0.974
--
compound: CCC(C)C(=O)OC1CC2(C)C(c3ccoc3)OC(=O)CC23OC2(C)OC34C(OC(=O)C(C)C)C3(O)C(OC(=O)C5(C)OC5C)C5(C)CC3(O)C(C)(C5C(=O)OC)C14O2 (stereo not drawn)
normalized growth: 1.02
--
compound: O=C(O[C@@H]1Cc2c(O)cc(O)cc2O[C@@H]1c1ccc(O)c(O)c1)c1cc(O)c(O)c(O)c1
normalized growth: 0.793
--
compound: CCC(C)C(=O)O[C@@H]1C[C@@]2(C)[C@H](c3ccoc3)OC(=O)CC23OC2(C)OC34[C@H](OC(=O)C(C)C)[C@@]3(O)[C@@H](OC(=O)C5(C)OC5C)[C@@]5(C)C[C@]3(O)[C@@](C)([C@H]5CC(=O)OC)C14O2 (stereo partly drawn)
normalized growth: 0.982
--
compound: CC(=O)Oc1cc(OC(C)=O)c2c(c1)O[C@H](c1ccc(OC(C)=O)c(OC(C)=O)c1)[C@H](OC(C)=O)C2
normalized growth: 0.999
--
compound: CCn1cc(C(=O)O)c(=O)c2cc(F)c(N3CCNC(C)C3)c(F)c21 (stereo not drawn)
normalized growth: 1.01
